- Protocol: folding enthalpy; higher = less favourable; fluorescence melt of hairpins on a sequencing array, two-state fit
- Stated conditions: sodium 0.088 M
Threshold check on folding enthalpy: at or above -30 kcal/mol gives True, strictly below gives False.

                            item_sequence  assigned_category
 0  GTAGACGAAAGTCGATAC ((((((....)))..)))               True
 1      GATCGAGCGTTCGATC ((((((....))))))              False
 2  GCAATCGGAAACGACTGC (((.(((....))).)))               True
 3  GCCGGGCGAAAGCCGAGC ((..(((....)))..))               True
 4  GTCTCGGCGAAAGCCGAC (((..(((....))))))               True
 5  GAGCCCGCGAAAGCGCTC (((..(((....))))))               True
 6  GACCGAGGAAACTTGGTC ((((.((....)).))))              False
 7        GATCGTTGCACGATC ((((((...))))))              False
 8  GTAAGCGAAAGCTCTTAC ((((((....)))..)))               True
 9                GCGTTGTACGC ((((...))))               True
10    GACGACGAAAGTCAGTC ((((((....))).)))               True
11      GATCGCACACGCGATC ((((((....))))))              False
12  GTCTCAACGAAAGTTGAC (((..(((....))))))               True
13                GCGGGTCCCGC ((((...))))               True
14    GCTATCGAAAGATAAGC ((((((....))).)))               True
15  GCTTTCGGAAACGGAAGC ((((.((....)).))))              False
16      GATCCCATCTGGGATC ((((((....))))))              False
17    GGGTACGAAAGTAACCC ((((((....))).)))               True
18  GCACTACGAAAGTACTGC (((.(((....))).)))               True
19  GGCAGCGAAAGCTTTGCC ((((((....)))..)))               True
20  GCAAATCCGAAAGGATGC (((..(((....))))))               True
21  GCATTCCGAAAGGACTGC (((.(((....))).)))               True
22      GGAATTGAAAAATTCC ((((((....))))))               True
23  GATTAACGAAAGTTTATC (((.(((....))).)))               True
24  GTACGCGAAAGCGATTAC ((((((....)))..)))               True
25  CGGAGGCGGAAACGCCCG (((..(((....))))))               True
26  GCGCCTGGAAACGGGTGC ((.((.(....).)).))              False
27  GTCAGTGGAAACACTAAC ((.((((....)))).))               True
28  GTGTAACGAAAGTTTCAC (((.(((....))).)))               True
29  GCGCATGGAAACACGCGC ((((.((....)).))))              False
30  GTGGAGCCGAAAGGCCAC (((..(((....))))))               True
31  GGGAAAGGAAACTTTCTC (.(((((....))))).)               True
32  GCTATCGCGAAAGCGAGC (((..(((....))))))               True
33  GACCACGAAAGTGCGGTC ((((((....)))..)))               True
34  GTTCGTGGAAACATGAAC ((((.((....)).))))              False
35      GATCGCCCGAGCGATC ((((((....))))))              False
36  GGTGATCGAAAGATTACC (((.(((....))).)))              False
37  GCTTGGGGAAACCCGAGC (((.(((....))).)))              False
38      GATCGACTGCTCGATC ((((((....))))))              False
39  GACTAAGGAAACTTAGTC (((((((....)))))))              False
40  GCATGGCGAAAGCCTCGC ((..(((....)))..))               True
41  GCCATTCGAAAGAACGGC (((.(((....))).)))              False
42  GATACGCGAAAGCGAATC (((.(((....))).)))               True
43    GTATTCGAAAGAATTAC ((((((....))).)))               True
44      GATCTGAGGCCAGATC ((((((....))))))              False
45  GATTTTGGAAACAGAATC ((((.((....)).))))               True
46  GGGATTCGAAAGAAGCCC (((.(((....))).)))              False
47      GATCCGTATACGGATC ((((((....))))))              False
